- studyTarget: D2 (Homo sapiens (Human))
- Sequence (P14416 whole entry): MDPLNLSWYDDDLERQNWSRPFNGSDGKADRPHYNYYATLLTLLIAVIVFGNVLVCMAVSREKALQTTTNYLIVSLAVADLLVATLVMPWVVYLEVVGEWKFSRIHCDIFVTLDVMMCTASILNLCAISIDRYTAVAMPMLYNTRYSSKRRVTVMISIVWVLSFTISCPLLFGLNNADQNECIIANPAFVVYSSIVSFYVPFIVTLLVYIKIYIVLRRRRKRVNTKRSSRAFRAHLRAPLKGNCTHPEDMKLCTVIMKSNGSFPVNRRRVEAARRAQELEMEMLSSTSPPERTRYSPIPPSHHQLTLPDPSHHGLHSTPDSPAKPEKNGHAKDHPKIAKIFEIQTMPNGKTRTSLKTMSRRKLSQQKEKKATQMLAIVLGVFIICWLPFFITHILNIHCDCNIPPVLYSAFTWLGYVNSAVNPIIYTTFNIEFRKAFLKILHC
- assayExplanation: D2 radioligand binding assay
pKi: −log10 of the molar value.
metric: pKi

compound: CC1(C(=O)NC(c2ccc(Cl)cc2)c2ccccn2)CCN(CCOc2ccccc2)CC1 (single isomer, unassigned) [Compound 144a]
studyTarget: D2 (Homo sapiens (Human))
result: > 7.00
--
compound: O=C(NC(c1ccc(Cl)cc1)c1ccccc1F)C1CCN(CCOc2ccccc2)CC1 (centres unmarked)
studyTarget: D2 (Homo sapiens (Human))
result: 5.00 to 6.00
--
compound: O=C(NC(c1ccc(F)cc1)c1ccccn1)C1CCN(CCOc2ccccc2)CC1 (centres unmarked)
studyTarget: D2 (Homo sapiens (Human))
result: 5.00 to 6.00
--
compound: FC(F)(F)CN(CC1CCN(CCOc2ccccc2)CC1)C(c1ccc(Cl)cc1)c1ccccn1 (centres unmarked)
studyTarget: D2 (Homo sapiens (Human))
result: 6.00 to 7.00
--
compound: O=C(NC(c1ccc(Cl)cc1)c1ccccn1)C1CCN(CCOc2ccccc2Cl)CC1 (centres unmarked)
studyTarget: D2 (Homo sapiens (Human))
result: 6.00 to 7.00
--
compound: CN(CC1CCN(CCOc2ccccc2)CC1)C(c1ccc(Cl)cc1)c1ccccn1 (single isomer, unassigned) [Compound 79b]
studyTarget: D2 (Homo sapiens (Human))
result: 6.00 to 7.00
--
compound: O=C(NC(c1ccc2c(c1)OC(F)(F)O2)c1ccccn1)C1CCN(CCOc2ccccc2F)CC1 (single isomer, unassigned) [Compound 94b]
studyTarget: D2 (Homo sapiens (Human))
result: 6.00 to 7.00
--
compound: O=C(NC(c1ccc(Cl)cc1)c1ccccn1)C1CCN(CCOc2ccc3cccnc3c2)CC1 (centres unmarked)
studyTarget: D2 (Homo sapiens (Human))
result: 4.52 to 5.00

====

- studyTarget: human D2R/β-arrestin (Homo sapiens (Human), UniProt P14416)
- assayExplanation: cell-based
- testConditions: β-arrestin Antagonist, CHO-K1 cell line expressing human D2R/β-arrestin; quinpirole used as agonist
pIC50: −log10 of the molar value.
Form field: pIC50 (one value per entry).

compound: CN1CCC(C(=O)NC(c2ccc(Cl)cc2)c2ccccn2)CC1 (stereo not shown)
pIC50: 4.52 to 5.00
--
compound: FC(F)(F)CN(CC1CCN(CCOc2ccccc2)CC1)C(c1ccc(Cl)cc1)c1ccccn1 (single isomer, unassigned) [Compound 125a]
pIC50: 5.00 to 6.00
--
compound: O=C(NC(c1ccc(Cl)cc1)c1ccccc1F)C1CCN(CCOc2ccccc2)CC1 (stereo not shown)
pIC50: 6.00 to 7.00
--
compound: Fc1ccccc1C(NCC1CCN(CCOc2ccccc2)CC1)c1ccc(Cl)cc1 (single isomer, unassigned) [Compound 81b]
pIC50: 5.00 to 6.00
--
compound: O=C(NC(c1ccc(F)cc1)c1ccccn1)C1CCN(Cc2nc3ccccc3o2)CC1 (stereo not shown)
pIC50: < 4.52
--
compound: O=C(NC(c1ccc(F)cc1)c1ccccn1)C1CCN(CCOc2cc(F)ccc2F)CC1 (stereo not shown)
pIC50: 6.00 to 7.00
--
compound: CC1(CNC(c2ccc(F)cc2)c2ccccn2)CCN(CCOc2ccccc2C(F)(F)F)CC1 (stereo not shown) [Compound 101]
pIC50: 6.00 to 7.00
--
compound: O=C(NC(c1cccnc1)c1ccccn1)C1CCN(CCOc2ccccc2)CC1 (stereo not shown)
pIC50: 5.00 to 6.00
--
compound: O=C(NC(c1ccc(F)cc1)c1ccccn1)C1CCN(Cc2cc3ccccc3o2)CC1 (stereo not shown)
pIC50: < 4.52
--
compound: O=C(NC(c1ccc(Cl)cc1)c1ccccn1)C1CCN(CCOc2ccccc2)CC1 (single isomer, unassigned) [Compound 63b]
pIC50: 6.00 to 7.00
--
compound: Fc1ccccc1OCCN1CCC(CNC(c2ccc3c(c2)OCO3)c2ccccn2)CC1 (stereo not shown) [Compound 139]
pIC50: 5.00 to 6.00
--
compound: O=C(NC(c1cccc(OC(F)(F)F)c1)c1ccccn1)C1CCN(CCOc2ccccc2)CC1 (stereo not shown)
pIC50: 5.00 to 6.00
--
compound: O=C(NC(c1ccc(Cl)cc1)c1cccc(F)c1)C1CCN(CCOc2ccccc2)CC1 (stereo not shown)
pIC50: 5.00 to 6.00
--
compound: O=C(NC(c1ccc(Cl)cc1)c1ccccn1)C1CCN(CCOc2ccc(C(F)(F)F)cc2)CC1 (stereo not shown)
pIC50: 4.52 to 5.00
--
compound: Fc1ccccc1OCCN1CCC(CN(CC(F)(F)F)C(c2ccc(Cl)cc2)c2ccccn2)CC1 (single isomer, unassigned) [Compound 136a]
pIC50: 6.00 to 7.00
--
compound: O=C(NC(c1ccc(Cl)cc1)c1ccccn1)C1CCN(CCOc2cc(F)ccc2F)CC1 (stereo not shown)
pIC50: 6.00 to 7.00

====

Form field: pIC50 (one value per entry).
- studyTarget: human D2R/β-arrestin (Homo sapiens (Human))
- assayExplanation: cell-based
- testConditions: cAMP Antagonist, CHO-K1 cell line expressing human D2R/β-arrestin; quinpirole used as agonist
pIC50: −log10 of the molar value.

compound: CN(CC1CCN(CCOc2ccccc2)CC1)C(c1ccc(F)cc1)c1ccccn1 (single isomer, unassigned) [Compound 74a]
pIC50: < 4.52

compound: CC(C1CCN(CCOc2ccccc2)CC1)N(C)C(c1ccc(Cl)cc1)c1ccccn1 (single isomer, unassigned) [Compound 97c]
pIC50: > 7.00

compound: O=C(NC(c1ccc(Cl)cc1)c1ccccn1)C1CCN(CCCCOc2ccccc2)CC1 (stereo not shown)
pIC50: 6.00 to 7.00

compound: O=C(NC(c1cccc(C(F)(F)F)c1)c1ccccn1)C1CCN(CCOc2ccccc2)CC1 (stereo not shown)
pIC50: 6.00 to 7.00

compound: CC(C)N(CC1CCN(CCOc2ccc(F)cc2)CC1)C(c1ccc(Cl)cc1)c1ccccn1 (stereo not shown)
pIC50: 6.00 to 7.00

compound: O=C(NC(c1ccc(F)cc1)c1ccccn1)C1CCN(CCOc2ccccc2Cl)CC1 (stereo not shown)
pIC50: > 7.00

compound: CN1CCC(C(=O)NC(c2ccc(Cl)cc2)c2ccccn2)CC1 (stereo not shown)
pIC50: 5.00 to 6.00

compound: O=C(NC(c1ccc2c(c1)OC(F)(F)O2)c1ccccn1)C1CCN(CCOc2ccccc2F)CC1 (stereo not shown) [Compound 94]
pIC50: < 4.52

compound: O=C(NC(c1ccc(Cl)cc1)c1ccncc1F)C1CCN(CCOc2ccccc2F)CC1 (single isomer, unassigned) [Compound 91a]
pIC50: < 4.52

compound: Fc1ccccc1OCCN1CCC(CNC(c2ccc3c(c2)OCO3)c2ccccn2)CC1 (stereo not shown) [Compound 139]
pIC50: 6.00 to 7.00

compound: O=C(NC(c1ccc(Cl)cc1)c1ccccc1F)C1CCN(CCOc2ccccc2F)CC1 (stereo not shown)
pIC50: 6.00 to 7.00

compound: Fc1ccccc1OCCN1CCC(CN(CC(F)(F)F)C(c2ccc(Cl)cc2)c2ccccn2)CC1 (stereo not shown) [Compound 136]
pIC50: > 7.00

compound: CN(CC1CCN(CCOc2ccccc2F)CC1)C(c1ccc(F)cc1)c1ccccn1 (stereo not shown)
pIC50: 6.00 to 7.00

compound: O=C(NC(c1ccc(Cl)cc1)c1ccccn1)C1CCN(CCOc2cccc(Cl)c2)CC1 (single isomer, unassigned) [Compound 1a]
pIC50: 6.00 to 7.00

compound: O=C(NC(c1ccc(Cl)cc1)c1ccccn1)C1CCN(CCOC2CCCCC2)CC1 (stereo not shown)
pIC50: 6.00 to 7.00

compound: Fc1ccccc1OCCN1CCC(CN(CC(F)(F)F)C(c2ccc(Cl)cc2)c2ccccn2)CC1 (single isomer, unassigned) [Compound 136b]
pIC50: > 7.00

compound: O=C(NC(c1ccc(Cl)cc1)c1ccccn1)C1CCN(CCOc2ccc(Cl)cc2)CC1 (stereo not shown)
pIC50: < 4.52

compound: COc1cccc(C(NC(=O)C2CCN(CCOc3ccccc3F)CC2)c2ccccn2)c1 (stereo not shown)
pIC50: 6.00 to 7.00

compound: CC1(C(=O)NC(c2ccc(Cl)cc2)c2ccccn2)CCN(CCOc2ccccc2)CC1 (single isomer, unassigned) [Compound 144a]
pIC50: < 4.52

compound: CC1(C(=O)NC(c2ccc(F)cc2)c2ccccn2)CCN(CCOc2ccccc2)CC1 (stereo not shown) [Compound 69]
pIC50: < 4.52

compound: O=C(NC(c1ccccn1)c1ccccc1Cl)C1CCN(CCOc2ccccc2)CC1 (stereo not shown)
pIC50: < 4.52

compound: O=C(NC(c1ccc(Cl)cc1)c1ccccn1)C1CCN(CCOc2ccc(F)cc2F)CC1 (single isomer, unassigned) [Compound 115b]
pIC50: 6.00 to 7.00

compound: O=C(NC(c1ccc2c(c1)OC(F)(F)O2)c1ccccn1)C1CCN(CCOc2ccc(F)cc2F)CC1 (stereo not shown) [Compound 130]
pIC50: < 4.52

compound: O=C(NC1CCN(CCOc2ccccc2)CC1)C(c1ccc(Cl)cc1)c1ccccn1 (stereo not shown)
pIC50: < 4.52

compound: O=C(NC(c1ccc(Cl)cc1)c1ccccn1)C1CCN(CCOc2ccccc2)CC1 (stereo not shown) [Compound 63]
pIC50: < 4.52

compound: CC(C)N(CC1CCN(CCOc2ccccc2F)CC1)C(c1ccc(Cl)cc1)c1ccccn1 (single isomer, unassigned) [Compound 133b]
pIC50: < 4.52

compound: O=C(NC(c1ccc(Cl)cc1)c1ccccn1)C1CCN(CCOc2ccccn2)CC1 (stereo not shown)
pIC50: 5.00 to 6.00

compound: O=C(NC(c1ccc(Cl)cc1)c1ccccn1)C1CCN(CCOc2ccccc2Cl)CC1 (stereo not shown)
pIC50: > 7.00

compound: O=C(NC(c1ccc(Cl)cc1)c1ccccn1)C1CCN(CCOc2ccc(C(F)(F)F)cc2)CC1 (stereo not shown)
pIC50: < 4.52

compound: COc1ccccc1C(NC(=O)C1CCN(CCOc2ccccc2)CC1)c1ccc(Cl)cc1 (stereo not shown)
pIC50: < 4.52

compound: O=C(NC(c1ccc(Cl)cc1)c1ccccn1)C1CCN(CCOc2c(F)cccc2F)CC1 (stereo not shown)
pIC50: > 7.00

Source listed as patent US10752588B2.
